The following binders are listed with their measured % inhibition at 10 nM values.
molecular target: human plasma kallikrein (human, UniProt P03952 20-390; P03952 391-638); test: cell-based or functional assay
Sequence (P03952 20-390, chain 1 of 2): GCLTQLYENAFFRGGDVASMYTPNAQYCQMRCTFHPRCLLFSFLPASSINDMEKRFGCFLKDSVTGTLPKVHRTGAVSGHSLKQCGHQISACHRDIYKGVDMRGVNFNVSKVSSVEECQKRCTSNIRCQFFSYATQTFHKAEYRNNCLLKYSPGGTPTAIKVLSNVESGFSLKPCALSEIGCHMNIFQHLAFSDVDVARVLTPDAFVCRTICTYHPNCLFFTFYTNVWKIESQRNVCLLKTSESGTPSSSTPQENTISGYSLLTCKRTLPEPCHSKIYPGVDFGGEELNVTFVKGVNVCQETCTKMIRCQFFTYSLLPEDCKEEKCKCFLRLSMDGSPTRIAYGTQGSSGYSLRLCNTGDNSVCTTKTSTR
Sequence (P03952 391-638, chain 2 of 2): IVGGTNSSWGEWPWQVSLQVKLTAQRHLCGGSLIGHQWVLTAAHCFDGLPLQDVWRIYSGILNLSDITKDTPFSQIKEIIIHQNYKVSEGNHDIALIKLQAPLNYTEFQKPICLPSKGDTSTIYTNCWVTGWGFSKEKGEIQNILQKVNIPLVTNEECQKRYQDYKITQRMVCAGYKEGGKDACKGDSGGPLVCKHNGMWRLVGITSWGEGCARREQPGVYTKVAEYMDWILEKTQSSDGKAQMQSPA
Respond numerically; units are % and should not be typed.

Recorded % inhibition at 10 nM, per entry:
## Task Fill in the blank: the reported % inhibition at 10 nM of M197-A08 (Fab, V domains shown) VH: EVQLLESGGGLVQPGGSLRLSCAASGFTFSIYSMQWVRQAPGKGLEWVSSIGSSGGKTLYADSVKGRFTISRDNSKNTLYLQMNSLRAEDTAVYYCAYRRTGIPRRDAFDIWGQGTMVTVSS VL: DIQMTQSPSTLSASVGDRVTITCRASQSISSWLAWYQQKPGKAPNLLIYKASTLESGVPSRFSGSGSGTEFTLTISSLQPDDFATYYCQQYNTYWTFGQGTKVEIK is ____.
## Result 93.7

## Task Fill in the blank: the reported % inhibition at 10 nM of M195-A12 (Fab, V domains shown) VH: EVQLLESGGGLVQPGGSLRLSCAASGFTFSPYMMMWVRQAPGKGLEWVSGIYPSGGYTVYADSVKGRFTISRDNSKNTLYLQMNSLRAEDTAVYYCAYRRTGIPRRDAFDIWGQGTMVTVSS VL: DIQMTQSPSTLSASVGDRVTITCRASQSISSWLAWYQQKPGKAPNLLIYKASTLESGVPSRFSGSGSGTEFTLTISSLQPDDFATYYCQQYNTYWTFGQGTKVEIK is ____.
## Result 51.7

## Task Fill in the blank: the reported % inhibition at 10 nM of M202-E06 (Fab, V domains shown) VH: EVQLLESGGGLVQPGGSLRLSCAASGFTFSHYIMMWVRQAPGKGLEWVSGIYSSGGITVYADSVKGRFTISRDNSKNTLYLQMNSLRAEDTAVYYCAYRRRGVPRRDDFDIWGQGTMVTVSS VL: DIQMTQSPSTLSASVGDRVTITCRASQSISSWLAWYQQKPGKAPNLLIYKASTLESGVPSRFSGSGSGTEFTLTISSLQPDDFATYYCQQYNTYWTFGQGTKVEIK is ____.
## Result 91.5

## Task Fill in the blank: the reported % inhibition at 10 nM of M196-C06 (Fab, V domains shown, Tested as Fab; printed HC runs into CH1) VH: EVQLLESGGGLVQPGGSLRLSCAASGFTFSIYSMHWVRQAPGKGLEWVSSIYPSRGMTWYADSVKGRFTISRDNSKNTLYLQMNSLRAEDTAVYYCAYRRTGIPRRDAFDIWGQGTMVTVSS VL: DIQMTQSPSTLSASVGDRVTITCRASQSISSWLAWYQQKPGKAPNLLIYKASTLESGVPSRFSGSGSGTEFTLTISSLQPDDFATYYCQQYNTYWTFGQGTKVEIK is ____.
## Result 97.2

// moving on: another record for % inhibition at 10 nM
## Task Fill in the blank: the reported % inhibition at 10 nM of M202-C02 (Fab, V domains shown) VH: EVQLLESGGGLVQPGGSLRLSCAASGFTFSHYIMMWVRQAPGKGLEWVSGIYSSGGITVYADSVKGRFTISRDNSKNTLYLQMNSLRAEDTAVYYCAYRRPGVPRRDAFDIWGQGTMVTVSS VL: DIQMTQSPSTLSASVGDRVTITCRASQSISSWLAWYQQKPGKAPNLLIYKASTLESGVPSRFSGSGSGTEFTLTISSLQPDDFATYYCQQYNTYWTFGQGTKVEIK is ____.
## Result 74.3
